Where do the numbers come from? From patent US7368424B2.

# Tested on: E. faecalis ICB 27159
# Type: cell-based, Enterococcus faecalis
# condition-notes: ICB 27159
*1 amine or outer side, *2 acyl side, *3 side chain or, on linkers, in order; H or OH if unused. Where a SMILES comes first, the peptide text is derived from it. Bridges are numbered along the chain shown (N, C = ends). [ ]: non-standard residue; d: D form. The star is where a group is joined. ξ: configuration not given here. Phe(3R-OH) = O=C([C@@H](N[*:1])[C@H](O[*:3])c1ccccc1)[*:2]; Asn(3S-OH) = NC(=O)[C@@H](O)[C@H](N)C(=O)O; Leu(3R-OH) = CC(C)[C@@H](O)[C@H](N)C(=O)O; d(tBuAla) = CC(C)(C)C[C@@H](N)C(=O)O; aThr = C[C@H](O)[C@H](N)C(=O)O; ξIle = CC[C@H](C)C(N)C(=O)O; Cbz = O=C(OCc1ccccc1)*; Bn = c1ccc(C*)cc1
test-readout: MIC E. faecalis ICB 27159 (µg/mL)
API: value field is a number in µg/mL; no unit string.

(Q) If you can, please state the reported MIC E. faecalis ICB 27159 value of CC[C@H](C)C1NC(=O)[C@@H](CCCNC(=N)N)NC(=O)[C@H](CC(C)C)NC(=O)[C@H]([C@H](O)C(C)C)NC(=O)[C@@H](NC(=O)[C@H](CCCCNC(=O)OCc2ccccc2)NC(=O)[C@H](N)CC(C)(C)C)[C@@H](c2ccccc2)OC(=O)[C@H](CO)NC(=O)[C@H]([C@H](O)C(N)=O)NC(=O)CNC(=O)[C@H]([C@H](C)O)NC1=O.O=C(O)C(F)(F)F.O=C(O)C(F)(F)F (stereo partly drawn) [Example 107] (H-[d(tBuAla)]K(Cbz)[Phe(3R-OH)][Leu(3R-OH)]L[dR][ξIle][aThr]G[Asn(3S-OH)]S; ester 3-C) .
(A) 1

(Q) Then this compound: CC[C@H](C)C1NC(=O)[C@@H](CCCNC(=N)N)NC(=O)[C@H](CC(C)C)NC(=O)[C@H]([C@H](O)C(C)C)NC(=O)[C@@H](NC(=O)[C@H](COCc2ccccc2)NC(=O)[C@H](N)CC(C)(C)C)[C@@H](c2ccccc2)OC(=O)[C@H](CO)NC(=O)[C@H]([C@H](O)C(N)=O)NC(=O)CNC(=O)[C@H]([C@H](C)O)NC1=O.O=C(O)C(F)(F)F.O=C(O)C(F)(F)F (stereo partly drawn) [Example 99] (H-[d(tBuAla)]S(Bn)[Phe(3R-OH)][Leu(3R-OH)]L[dR][ξIle][aThr]G[Asn(3S-OH)]S; ester 3-C)
(A) 0.063
